Experiment: Apparent permeability across human Caco2 cells at 200 uM by LC/MS analysis
Assay type: ADME, cell-based
Settings: Caco-2
# Papp at 200 µM annotations
Write the value in ×10⁻⁶ cm/s as a bare number.

These solved cases illustrate the format of a correct answer.
Compound: NC(=O)[C@H](Cc1ccccc1)NC(=O)[C@H](Cc1c[nH]c2ccccc12)NC(=O)[C@@H]1CCCN1C(=O)[C@H](Cc1ccc(O)cc1)NC(=O)CCC(=O)N[C@@H]1O[C@H](CO)[C@@H](O[C@@H]2O[C@H](CO)[C@H](O)[C@H](O)[C@H]2O)[C@H](O)[C@H]1O
Papp at 200 µM, ×10⁻⁶ cm/s: 76
--
Compound: NC(=O)[C@H](Cc1ccccc1)NC(=O)[C@H](Cc1c[nH]c2ccccc12)NC(=O)[C@@H]1CCCN1C(=O)[C@@H](N)Cc1ccc(O)cc1 [ENDOMORPHIN-1]
Papp at 200 µM, ×10⁻⁶ cm/s: 0.11

Please examine the following record next.
Given the entry CC(C)NCC(O)COc1cccc2ccccc12 (stereo not drawn) , report its measured Papp at 200 µM. 150

* * *

Assay: Half life in human plasma at 1 mg/ml by RP-HPLC analysis
Assay type: ADME, cell-free
Readout type: half-life at 1 mg/ml (min)
Write the value in min as a bare number.

Given the entry NC(=O)[C@H](Cc1ccccc1)NC(=O)[C@H](Cc1c[nH]c2ccccc12)NC(=O)[C@@H]1CCCN1C(=O)[C@H](Cc1ccc(O)cc1)NC(=O)CCC(=O)N[C@@H]1O[C@H](CO)[C@@H](O[C@@H]2O[C@H](CO)[C@H](O)[C@H](O)[C@H]2O)[C@H](O)[C@H]1O , report its measured half-life at 1 mg/ml. 57.3
